Biological target: T1, human ENTPD2 (Homo sapiens, UniProt Q9Y5L3)
T1 construct: residues 29-462 of human or cyno ENTPD2 were cloned into expression vector; GP67 signal peptide (N); made in house; host or cells: High Five (Trichoplusia ni) insect cells, baculovirus
T1 sequence (Q9Y5L3 29-462): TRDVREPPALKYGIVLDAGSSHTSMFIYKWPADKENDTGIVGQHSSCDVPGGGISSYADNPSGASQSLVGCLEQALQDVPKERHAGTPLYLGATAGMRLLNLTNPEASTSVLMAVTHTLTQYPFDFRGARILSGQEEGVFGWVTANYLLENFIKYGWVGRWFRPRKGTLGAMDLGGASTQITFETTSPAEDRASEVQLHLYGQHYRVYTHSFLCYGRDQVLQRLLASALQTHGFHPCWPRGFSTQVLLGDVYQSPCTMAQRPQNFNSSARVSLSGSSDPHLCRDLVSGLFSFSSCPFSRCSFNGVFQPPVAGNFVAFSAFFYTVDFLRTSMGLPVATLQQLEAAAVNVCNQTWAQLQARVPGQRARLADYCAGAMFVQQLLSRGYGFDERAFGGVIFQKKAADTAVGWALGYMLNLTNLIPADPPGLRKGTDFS
Experiment: Biacore (SPR) affinity to human ENTPD2 ECD
Format: binding
Settings: 25° C.
Description: Biacore Screening: Affinity was measured by determining the kinetic rate constants using surface plasmon resonance (SPR) on a Biacore T200 or T100 with the T200 sensitivity upgrade instrument (Biacore, GE Healthcare). […] The raw data were analyzed using Biacore T200 Evaluation Software version 1.0 and fit to a 1:1 binding model, with all parameters set to fit globally except for RI, which was set to fit locally.
Outcome Measure: kd (s⁻¹)
Field format: number, assumed s⁻¹, no unit text.

Please report the recorded kd for mAb4: humanized anti-human ENTPD2 antibody from mAb16; VH SEQ ID NO: 46, VL SEQ ID NO: 57 (antibody, V domains shown) VH: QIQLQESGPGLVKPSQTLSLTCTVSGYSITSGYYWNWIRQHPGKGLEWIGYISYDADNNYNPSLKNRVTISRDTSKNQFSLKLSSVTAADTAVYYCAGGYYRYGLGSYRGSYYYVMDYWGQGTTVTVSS VL: ETVLTQSPATLSVSPGERATISCKASQSVDYEGHSYMNWYQQKPGQAPRLLIYAASNLESGIPARFSGSGSGTDFTLTISSVEPEDAATYYCQQSNEDPPTFGGGTKLEIK .
0.00022

Ref: patent US20220348651A1
